Every entry's value here was drawn from BindingDB's records for patent US20250388593.

Below, each entry is listed alongside its reported pKd.
Target: Protein cereblon [318-426] (UniProt Q96SW2)
Construct: 318-426
Sequence (Q96SW2 318-426): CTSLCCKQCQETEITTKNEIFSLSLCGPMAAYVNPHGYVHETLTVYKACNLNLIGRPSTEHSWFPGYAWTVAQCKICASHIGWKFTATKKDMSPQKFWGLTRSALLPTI
Experiment: Measurement of Molecular Interactions Using Surface Plasmon Resonance (SPR)
pKd: −log10 of the molar value.

Some solved entries appear below for comparison.
molecule="Cn1c(=O)n(C2CCCC(=O)NC2=O)c2ccc(CCCCC(=O)OC(C)(C)C)cc21 (configuration not stated) [US20250388593, Example 217]" observation_type=pKd test_result="> 4.30"
molecule="CC(C)(C)OC(=O)N1CCC(c2ccc(OC3CCCCNC3=O)cc2)CC1 (configuration not stated) [US20250388593, Example 276]" observation_type=pKd test_result="< 4.00"
molecule="CC(C)(C)OC(=O)CN1CCC2(CCCC(=O)NC2=O)CC1=O (configuration not stated) [US20250388593, Example 107]" observation_type=pKd test_result="< 4.00"
molecule="CC(=O)Nc1ccc2nc(N3CCCC(=O)NC3=O)sc2c1 [US20250388593, Example 119]" observation_type=pKd test_result="> 4.30"
molecule="Cn1nc(N2CC=CC(=O)NC2=O)c2ccc(C3CCN(C(=O)OC(C)(C)C)CC3)cc21 [US20250388593, Example 282]" observation_type=pKd test_result="< 4.00"

Ask | Hello, please tell me recorded pKd for this one: O=C1CCCC(N2C(=O)OCC3=C2C=CC([N+](=O)[O-])C3)C(=O)N1 (configuration not stated) [US20250388593, Example 274]
Reply | < 4.00

Ask | Please list pKd recorded for the molecule CC(C)(C)OC(=O)CCc1nn(C2CCCC(=O)NC2=O)c2ccccc12 (configuration not stated) [US20250388593, Example 137]
Reply | > 4.30
